Kd by entry:
- assayed.system: T1, Mouse ST2 (mouse, UniProt P14719 27-332, limits assumed)
- T1 construct: also called mouse ST2 protein
- T1 sequence (looked up): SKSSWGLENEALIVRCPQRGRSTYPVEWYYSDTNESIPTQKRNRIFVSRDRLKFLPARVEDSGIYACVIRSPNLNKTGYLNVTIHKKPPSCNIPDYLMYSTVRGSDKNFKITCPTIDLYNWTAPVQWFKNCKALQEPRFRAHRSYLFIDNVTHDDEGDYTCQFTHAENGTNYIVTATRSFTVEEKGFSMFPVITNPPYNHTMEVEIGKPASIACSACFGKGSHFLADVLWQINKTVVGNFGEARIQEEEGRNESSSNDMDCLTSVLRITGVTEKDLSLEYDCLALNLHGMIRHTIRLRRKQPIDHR
- assay.comment: SPR (Carterra), antibody immobilized, ST2 analyte, 1:1
Just the number in nM, nothing appended.

For orientation, consider the following solved cases.
{"binder": "Human ST2 IgG1 Antibody 99 (antibody, V domains shown, IgG1, kappa; also called ST2 Antibody 99) VH: EVQLLESGGGLVQPGGSLRLSCAASGFTFSDYYMNWVRQAPGKGLEWVSTISGFGESTFYADSVKGRFTISRDNSKNTLYLQMNSLRAEDTAVYYCARLGAARAFDIWGQGTTVTVSS VL: DIQMTQSPSSLSASVGDRVTITCRASQSIGSWMAWYQQKPGKAPKLLIYAASTLQSGVPSRFSGSGSGTDFTLTISSLQPEDFATYYCQQSYTTPITFGPGTKVDIKR", "assay.readout": "Kd", "result.number": 419}
{"binder": "Human ST2 IgG1 Antibody 104 (antibody, V domains shown, IgG1, kappa) VH: QVQLVQSGAEVKKPGSSVKVSCKASGYTFTNYAIIWVRQAPGQGLEWMGGIIPVFGTADYTQTFQGRVTITADESTSTAYMELSSLRSEDTAVYYCARVSTNYYDSSGYYAFDYWGQGTLVTVSS VL: DIQMTQSPSSLSASVGDRVTITCRASQSISSYLNWYQQKPGKAPKLLIYDASSLQSGVPSRFSGSGSGTDFTLTISSLQPEDFATYYCQQTYHTPWTFGQGTKVEIKR", "assay.readout": "Kd", "result.number": 684}
{"binder": "Human ST2 IgG1 Antibody 105 (antibody, V domains shown, IgG1, kappa) VH: EVQLLESGGGLVQPGGSLRLSCAASGFTFSSYAMHWVRQAPGKGLEWVAVMSYDGRHEYYADSVKGRFTISRDNSKNTLYLQMNSLRAEDTAVYYCASTDYDIGGYSLPLDYWGQGTLVTVSS VL: DIQMTQSPSSLSASVGDRVTITCRASQSVSSWLAWYQQKPGKAPKLLIYAASNLQSGVPSRFSGSGSGTDFTLTISSLQPEDFATYYCQQSYDVPWTFGQGTRLEIKR", "assay.readout": "Kd", "result.number": 172}
{"binder": "Human ST2 IgG1 Antibody 38 (antibody, V domains shown, IgG1, kappa; also called ST2 Antibody 38) VH: QVQLVQSGAEVKKPGSSVKVSCKASGGTFSSYAISWVRQAPGQGLEWMGTIIPMFGIADYAQKFQGRVTITADESTSTAYMELSSLRSEDTAVYYCARSSRSSSWYNWYFDLWGRGTLVTVSS VL: EIVMTQSPATLSVSPGERATLSCRASQSISSSYLAWYQQKPGQAPRLLIYGASTRATGIPARFSGSGSGTEFTLTISSLQSEDFAVYYCQQYYTTPWTFGQGTKVEIKR", "assay.readout": "Kd", "result.number": 529}
{"binder": "Human ST2 IgG1 Antibody 20 (antibody, V domains shown, IgG1, kappa; also called ST2 Antibody 20) VH: EVQLLESGAEVKKPGSSVKVSCKASGGTFSSYAISWVRQAPGQGLEWMGGIIPIFGTANYAQKFQGRVTITADESTSTAYMELSSLRSEDTAVYYCASGFYSNDLYYYYYMDVWGKGTTVTVSS VL: DIQMTQSPSSLSASVGDRVTITCRASQSISSWLAWYQQKPGKAPKLLIYDASNLKTGVPSRFSGSGSGTDFTLTISSLQPEDFATYYCQQTYAIPLTFGGGTKVEIKR", "assay.readout": "Kd", "result.number": 2200}

Record request: Kd value, item Human ST2 IgG1 Antibody 89 (antibody, V domains shown, IgG1, kappa; also called ST2 Antibody 89) VH: EVQLLESGGGLVKPGGSLRLSCAASGFTFSSYWMSWVRQAPGKGLEWVSAISGTAINTYYADSVKGRFTISRDDSKNTLYLQMNSLKTEDTAVYYCARVRRDSSGGGAFDIWGQGTMVTVSS VL: DIQMTQSPSSLSASVGDRVTITCRASQGISNNLNWYQQKPGKAPKLLIYAASSLQTGVPSRFSGSGSGTDFTLTISSLQPEDFATYYCQQSYSTPPTFGQGTKVEIKR
989

Field entry: Human ST2 IgG1 Antibody 63 (antibody, V domains shown, IgG1, kappa; also called ST2 Antibody 63) VH: QVQLVQSGAEVKKPGSSVKVSCKASGGTFSSDAINWVRQAPGQGLEWMGGIVPAFGTANYAQKFQGRVTITADESTSTAYMELSSLRSEDTAVYYCARSSSSWPYYYYYMDVWGKGTTVTVSS VL: DIVMTQSPLSLPVTPGEPASISCRSSQSLLLNNGNNFIDWYLQKPGQSPQLLIYAASILQGGVPDRFSGSGSGTDFTLKISRVEAEDVGVYYCMQALQTPPTFGQGTKVEIKR
2400

Field entry: Human ST2 IgG1 Antibody 21 (antibody, V domains shown, IgG1, kappa; also called ST2 Antibody 21) VH: QVQLVQSGAEVKKPGASVKVSCKASGYTFSNHYMHWVRQAPGQGLEWMGWVNPTSGNTGYAQKFQGRVTMTRDTSTSTVYMELSSLRSEDTAVYYCARDLGVTYFDLWGRGTLVTVSS VL: DIQMTQSPSSLSASVGDRVTITCRASQGISSWLAWYQQKPGKAPKLLIYEASHLETGVPSRFSGSGSGTDFTLTISSLQPEDFATYYCLQDYNYPLTFGGGTKVEIKR
999

Field entry: Human ST2 IgG1 Antibody 52 (antibody, V domains shown, IgG1, kappa; also called ST2 Antibody 52) VH: QVQLVQSGAEVKKPGSSVKVSCKASGGTFSNYAISWVRQAPGQGLEWMGWISAYNGNTNYAQKFQGRVTITADESTSTAYMELSSLRSEDTAVYYCARLSTVTTRPYYYYGMDVWGQGTTVTVSS VL: DIVMTQSPLSLPVTPGEPASISCRSSQSLLHSNGYNYLDWYLQKPGQSPQLLIYAASSLQGGVPDRFSGSGSGTDFTLKISRVEAEDVGVYYCMQGTHWPTFGQGTKVEIKR
2700
